# Test system: RXF 393 renal
# Protocol Text: NCI tumour cell line growth inhibition, 48 h; in the data active = GI50 below about 0.43 µM; inactive = the rest
Outcome (select one): active, inactive

Past entries and their recorded results:
- Compound: "CC[n+]1ccc2c(c1)C(=O)c1nccc3c1c-2nc1ccccc13"
  Classification: "inactive"
- Compound: "COc1ccccc1NC(=O)c1ccc(/C=C/C(=O)c2nccn2C)cc1"
  Classification: "active"
- Compound: "Cn1cc(C2=C(c3ccc(OC[C@@H](O)CO)cc3)C(=O)NC2=O)c2ccccc21"
  Classification: "inactive"

Q: Fill in: this test's call for "CN(C)CCNc1nc2ccccc2c2[nH]c3ccccc3c12" is ___
A: inactive

Q: Fill in: this test's call for "Cc1c(N2C(=O)/C(=C\c3ccccc3O)N=C2c2ccccc2)c(=O)n(-c2ccccc2)n1C" is ___
A: inactive

Q: Fill in: this test's call for OC(c1cccc(C(F)(F)F)c1)c1cnccc1NC1CCCCCC1 (stereo not given) is ___
A: inactive

Q: Fill in: this test's call for "N#Cc1nc(-c2ccc(F)cc2)oc1S(=O)(=O)N1CCOCC1" is ___
A: inactive

Q: Fill in: this test's call for "CN=C1NC(=O)/C(=C/c2ccc3ncccc3c2)S1" is ___
A: inactive

Q: Fill in: this test's call for "NS(=O)(=O)c1ccc(-n2nc(-c3ccc(Br)cc3)ccc2=O)cc1" is ___
A: inactive

Q: Fill in: this test's call for "CCN1CCN(c2nc(NCCNc3ccnc4cc(Cl)ccc34)c3ccccc3n2)CC1" is ___
A: inactive

* * *

The reader will find reported TGI values listed item by item below.
# System: OVCAR-8 ovarian
# Protocol Text: NCI tumour cell line growth inhibition, 48 h

Completed entries (count: 8):
- Molecule: "COc1ccc2c(c1)C(=O)c1ccccc1C2"
  TGI: "> 100 µM"
- Molecule: "Clc1cccc(NC=Nc2ccc(-c3nc4ccccc4s3)cc2)c1"
  TGI: "30.6 µM"
- Molecule: "N#CC(C#N)=C1CCCS(=O)(=O)c2ccccc21"
  TGI: "> 100 µM"
- Molecule: "COc1cc2c(c(O)c1C)C(=O)C(Cl)=CC2=O"
  TGI: "45 µM"
- Molecule: "NC1(CCCCCCCCCCC(=O)O)CNCCNCCNCCNC1"
  TGI: "> 100 µM"
- Molecule: "CCN(CCCN(CC)C(=O)N[C@@H](Cc1ccccc1)C(=O)NC)C(=O)N[C@@H](Cc1ccccc1)C(=O)NC"
  TGI: "> 100 µM"
- Molecule: "COc1cccc(-c2nn(-c3ccccc3)cc2-c2ccnc(NCCCNS(=O)(=O)c3cccc(F)c3)c2)c1"
  TGI: "> 100 µM"
- Molecule: "O=C(N/N=C/c1cccc(O)c1O)N/N=C/c1cccc(O)c1O"
  TGI: "> 100 µM"

Q: So what's the measured TGI for this one? "COc1ccc(N=Cc2cc(OC)c(OC)c(OC)c2)cc1"
A: > 100 µM

Q: So what's the measured TGI for this one? "c1ccc(-c2nnc(-c3nn(-c4ccccc4)c4nc5ccccc5nc34)o2)cc1"
A: > 100 µM

Q: So what's the measured TGI for this one? "O=C1/C(=C/c2ccccc2)CN(C(=O)Oc2ccc(Cl)cc2)C/C1=C\c1ccccc1"
A: 3.6 µM

Q: So what's the measured TGI for this one? "C[C@@H]1C[C@H](O)[C@]2(O)O[C@@H]3C[C@@]4(C=O)[C@@H](CC=C5[C@@H]4CC[C@]4(C)[C@@H](C6=CC(=O)OC6)CC[C@]54O)C[C@H]3O[C@@H]2O1"
A: 0.22 µM

Q: So what's the measured TGI for this one? "CCOC(=O)c1c(N)n(-c2ccccc2)c(=S)n(-c2ccccc2)c1=O"
A: > 100 µM

Q: So what's the measured TGI for this one? "O=C1CC[C@H]2CNC(=O)C[C@H]2C1"
A: > 100 µM

Q: So what's the measured TGI for this one? COc1ccc(CN2CCCC(C(=O)c3ccc(C(F)(F)F)cc3)C2)c(O)c1 (stereo not drawn)
A: > 100 µM

Q: So what's the measured TGI for this one? "Cc1cc2cccc(Cl)c2nc1C(=O)c1ccccc1"
A: > 100 µM

Q: So what's the measured TGI for this one? "COc1cc2c(cc1O)[C@H](Cc1ccc(Oc3cc(C[C@H]4c5cc(OC)c(OC)cc5CCN4C)ccc3OC)cc1)NCC2"
A: 27.8 µM
